# study_system: Mineralocorticoid receptor (Homo sapiens, UniProt P08235)
# Sequence (P08235 whole entry): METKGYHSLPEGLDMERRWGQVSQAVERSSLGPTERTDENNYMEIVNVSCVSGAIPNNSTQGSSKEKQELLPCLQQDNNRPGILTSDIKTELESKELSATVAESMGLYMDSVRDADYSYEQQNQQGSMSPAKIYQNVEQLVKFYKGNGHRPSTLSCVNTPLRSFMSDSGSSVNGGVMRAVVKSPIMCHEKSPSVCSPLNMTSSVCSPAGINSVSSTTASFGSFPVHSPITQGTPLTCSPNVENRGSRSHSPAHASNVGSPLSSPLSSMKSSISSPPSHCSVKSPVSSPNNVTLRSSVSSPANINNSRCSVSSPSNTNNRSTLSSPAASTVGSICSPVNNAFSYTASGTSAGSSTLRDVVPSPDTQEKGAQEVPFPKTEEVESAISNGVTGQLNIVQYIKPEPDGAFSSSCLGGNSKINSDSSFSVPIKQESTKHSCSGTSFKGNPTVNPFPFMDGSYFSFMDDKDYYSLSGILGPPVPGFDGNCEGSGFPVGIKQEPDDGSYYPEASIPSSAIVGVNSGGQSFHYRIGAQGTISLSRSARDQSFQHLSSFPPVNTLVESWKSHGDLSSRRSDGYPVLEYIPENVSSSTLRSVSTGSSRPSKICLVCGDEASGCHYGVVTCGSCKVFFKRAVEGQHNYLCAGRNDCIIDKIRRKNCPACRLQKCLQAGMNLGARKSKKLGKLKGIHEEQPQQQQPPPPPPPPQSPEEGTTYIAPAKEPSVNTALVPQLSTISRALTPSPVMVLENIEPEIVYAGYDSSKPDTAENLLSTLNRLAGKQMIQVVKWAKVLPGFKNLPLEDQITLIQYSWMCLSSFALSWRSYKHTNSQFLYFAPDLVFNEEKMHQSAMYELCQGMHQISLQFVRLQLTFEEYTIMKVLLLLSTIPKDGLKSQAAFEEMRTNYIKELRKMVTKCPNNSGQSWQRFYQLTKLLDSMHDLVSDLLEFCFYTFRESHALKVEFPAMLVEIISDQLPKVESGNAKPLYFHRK
# experiment_description: Antagonist activity at human mineralocorticoid receptor expressed in HEK293 cells assessed as inhibition of […]-induced transcriptional activity by GRE-driven luciferase reporter gene assay
attribute_measured: IC50 (µM)
State the answer as a number, implicitly in µM.

Report its IC50 with Mineralocorticoid receptor (Homo sapiens, UniProt P08235) as the test system: CC[C@H](C)n1cc(-c2ccc(C#N)cc2)c2ccc(NS(C)(=O)=O)cc21 9.8

Report its IC50 with Mineralocorticoid receptor (Homo sapiens, UniProt P08235) as the test system: CC(c1ccc(F)cc1)(c1c[nH]c2c(NS(C)(=O)=O)cccc12)C1CC1 (stereo not given) 0.0641

Report its IC50 with Mineralocorticoid receptor (Homo sapiens, UniProt P08235) as the test system: CC(C)n1cc(-c2ccc(C#N)c(F)c2)c2ccc(NS(C)(=O)=O)cc21 8.15

Report its IC50 with Mineralocorticoid receptor (Homo sapiens, UniProt P08235) as the test system: COc1cc(-c2cn(C(C)C)c3cc(NS(C)(=O)=O)ccc23)ccc1C#N 2.42

Each recorded value in this set is attributed to ChEMBL document CHEMBL1671834.
